Listed here: items and their measured AC50.
target: human recombinant GST cleaved CSNK1D (Homo sapiens (Human), UniProt P48730); assay: Purified enzyme assay (ADP-Glo Kinase Assay); format: biochemical; details: 2 nM CSNK1D, peptide substrate 150 μM, ATP 20 μM, 45 minutes room temperature
Sequence (P48730 whole entry): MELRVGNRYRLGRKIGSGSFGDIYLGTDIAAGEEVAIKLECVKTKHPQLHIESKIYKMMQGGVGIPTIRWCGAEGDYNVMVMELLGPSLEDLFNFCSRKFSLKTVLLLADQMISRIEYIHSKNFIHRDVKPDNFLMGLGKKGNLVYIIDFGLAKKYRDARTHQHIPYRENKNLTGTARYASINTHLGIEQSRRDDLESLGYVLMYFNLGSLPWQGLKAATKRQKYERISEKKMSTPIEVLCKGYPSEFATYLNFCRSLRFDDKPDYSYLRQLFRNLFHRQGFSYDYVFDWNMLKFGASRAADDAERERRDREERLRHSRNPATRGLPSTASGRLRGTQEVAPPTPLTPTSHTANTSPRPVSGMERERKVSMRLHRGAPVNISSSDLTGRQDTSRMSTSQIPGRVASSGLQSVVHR
Phrase the answer as number then unit, nothing more needed.

Record excerpt, results attached:
Cpd smiles	AC50
Cn1cc(-c2ccnc3[nH]ccc23)c(-c2cnco2)n1	0.041 µM
Cn1cc(-c2c(F)cnc3[nH]ccc23)c(-c2ccc(F)cn2)n1	0.004 µM
COc1ccc2nccc(-c3cn(C)nc3-c3ccc(F)cn3)c2n1	0.01 µM
Cn1cc(-c2ccnc3[nH]c(C(F)F)cc23)c(-c2ccc(F)cn2)n1	0.023 µM
Cn1cc(-c2ccnc3[nH]ncc23)c(-c2ccc(C(F)F)cn2)n1	0.317 µM

I'd like to know its AC50. The compound in question is Fc1ccc(-c2nn(C3COC3)cc2-c2ccnc3[nH]ccc23)nc1 0.008 µM

Repeat with CC(=O)Nc1cc(-c2cn(C)nc2-c2ccc(F)cn2)ccn1 0.009 µM

Thanks! And Cn1cc(-c2ccnc3[nH]cc(Cl)c23)c(-c2ccc(F)cn2)n1 ? 0.001 µM

And then Cc1cnc2[nH]ccc2c1-c1cn(C)nc1-c1ccc(F)cn1 , what is it? 0.007 µM

Next up: Cn1cc(-c2ccnc3c2CNC3)c(-c2ccc(F)cn2)n1 0.101 µM

Can you handle COc1cc(OC)c2c(-c3cn(C)nc3-c3ccc(F)cn3)ccnc2c1 next? 0.038 µM

* * *

Each entry below lists one item and its recorded IC50 value.
target: human CSNK1D tagged with nanoluciferase (Homo sapiens (Human)); experiment: Whole Cell nBRET CSNK1D Binding Assay; details: living CHO cells stably expressing human CSNK1D-nanoluciferase; NanoBret tracer 130 nM; 2 hours 37° C.; read-out: CSNK1D BRET IC50

Below, 4 molecules whose answers are already recorded.
Molecule	IC50
Cn1cc(-c2ccnc3[nH]ccc23)c(-c2cccc(F)n2)n1 [Example 29]	0.186 µM
COc1ccc2c(-c3cn(C)nc3-c3ccc(F)cn3)cc(C)nc2c1 [Example 110]	> 10 µM
Cn1cc(-c2ccnc3cc(C#N)ccc23)c(-c2ccc(F)cn2)n1 [Example 149]	> 10 µM
Cc1cc(-c2cn(C)nc2-c2c(C)cncc2F)c2cn[nH]c2n1 [Example 140]	> 10 µM

With those in mind, consider the next molecule.
Give IC50 (human CSNK1D tagged with nanoluciferase (Homo sapiens (Human))) of the following molecule: Cn1cc(-c2ccnc3[nH]ccc23)c(-c2ccnnc2)n1 [Example 49] > 10 µM

* * *

molecular target: human recombinant GST cleaved CSNK1D (Homo sapiens (Human), UniProt P48730); assay: Purified enzyme assay (ADP-Glo Kinase Assay); type: biochemical; conditions: 2 nM CSNK1D, peptide substrate 150 μM, ATP 20 μM, 45 minutes room temperature
Metric name: AC50

See these solved cases before continuing.
Compound	AC50
Cn1cc(-c2ccnc3[nH]ccc23)c(-c2nccs2)n1 [Example 16]	15 nM
COc1ncc(-c2nn(C)cc2-c2cc(C)nc3[nH]ncc23)cc1Cl [Example 142]	28 nM
Cn1cc(-c2ccnc3[nH]c(C4(O)COC4)cc23)c(-c2ccc(F)cn2)n1 [Example 94]	10 nM
Cn1cc(-c2nc(C3CC3)nc3[nH]ccc23)c(-c2ccc(F)cn2)n1 [Example 125]	66 nM
Cn1cc(-c2ccnc3ccsc23)c(-c2ccc(F)cn2)n1 [Example 118]	24 nM

Requested field: AC50. Item: Cc1cc(-c2cn(C(C)C)nc2-c2ccc(F)cn2)c2cn[nH]c2n1 [Example 60] 11 nM

Now the compound Cc1cc(-c2cn(C)nc2-c2ccc(Cl)cn2)c2cn[nH]c2n1 [Example 26] 58 nM

Try this compound too: Cn1cc(-c2ccnc3cc(C(F)(F)F)ccc23)c(-c2ccc(F)cn2)n1 [Example 107] 31 nM

Now give it for Cc1cc(-c2cn(C)nc2-c2ccc(F)cn2)c2cn[nH]c2n1 [Example 99] too. 11 nM

Then what about the compound COc1nc(-c2nn(C)cc2-c2cc(C)nc3[nH]ncc23)ccc1F [Example 41] ? 107 nM

Entry COc1ccc2nccc(-c3cn(C)nc3-c3ccc(F)cn3)c2c1 [Example 129] please 109 nM

And then CCn1cc(-c2ccnc3[nH]ncc23)c(-c2ccc(F)cn2)n1 [Example 56] , what is it? 5 nM

Same lookup for CCn1cc(-c2cc(C)nc3[nH]ncc23)c(-c2ccc(F)cn2)n1 [Example 57] , please. 14 nM

Would you kindly repeat that for Cn1cc(-c2ccnc3c2ccn3C)c(-c2ccc(F)cn2)n1 [Example 144] ? 77 nM

Can you handle CC(C)Cn1cc(-c2ccnc3[nH]ncc23)c(-c2ccc(F)cn2)n1 [Example 62] next? 8 nM

And then COc1cccc2c(-c3cn(C)nc3-c3ccc(F)cn3)ccnc12 [Example 148] , what is it? 7090 nM

Now this one: Cn1cc(-c2ccnc3[nH]ccc23)c(-c2cncnc2)n1 [Example 45] 746 nM

And the next one, Cc1nc(-c2cn(C)nc2-c2ccc(F)cn2)c2cn[nH]c2n1 [Example 124] ? 52 nM

And then Cn1cc(-c2ccnc3cc(OC(F)(F)F)ccc23)c(-c2ccc(F)cn2)n1 [Example 109] , what is it? 41 nM

Try the compound Cn1cc(-c2ccnc3[nH]ccc23)c(-c2ccnnc2)n1 [Example 49] 451 nM

// next record Cn1cc(-c2ccnc3[nH]c(C(F)(F)F)cc23)c(-c2ccc(F)cn2)n1 [Example 85] 22 nM

* * *

Entries and their measured pIC50 follow.
biological target: human CSNK1D tagged with nanoluciferase (Homo sapiens (Human), UniProt P48730); experiment: Whole Cell nBRET CSNK1D Binding Assay; conditions: living CHO cells stably expressing human CSNK1D-nanoluciferase; NanoBret tracer 130 nM; 2 hours 37° C.; read-out: CSNK1D BRET IC50
Sequence (P48730 whole entry): as above
// pIC50: -log10(molar conc.)

Example cases with answers are listed next.
Cpd smiles	pIC50
Cc1cncc(-c2nn(C)cc2-c2cc(C)nc3[nH]ncc23)c1	6.05
Cn1cc(-c2ccnc3cc(C(F)(F)F)ccc23)c(-c2ccc(F)cn2)n1	6.58

Now take the following molecule into account.
Look up pIC50 for this molecule: Cc1cccc(-c2nn(C)cc2-c2cc(C)nc3[nH]ncc23)n1 6.41

* * *

biological target: human CSNK1D tagged with nanoluciferase (Homo sapiens (Human), UniProt P48730); assay: Whole Cell nBRET CSNK1D Binding Assay; conditions: living CHO cells stably expressing human CSNK1D-nanoluciferase; NanoBret tracer 130 nM; 2 hours 37° C.; read-out: CSNK1D BRET IC50
pIC50: −log10 of the molar value.
Parameter threshold = 6. Response is YES when pIC50 meets or exceeds it, else NO.

Please indicate if the recorded pIC50 for Cn1cc(-c2ccnc3[nH]ccc23)c(-c2ccncc2F)n1 meets or exceeds 6. NO

Then Cn1cc(-c2ccnc3c2CCNC3)c(-c2ccc(F)cn2)n1 ? NO

* * *

molecular target: human recombinant GST cleaved CSNK1D (Homo sapiens (Human), UniProt P48730); test: Purified enzyme assay (ADP-Glo Kinase Assay); format: biochemical; settings: 2 nM CSNK1D, peptide substrate 150 μM, ATP 20 μM, 45 minutes room temperature
Each record here notes measured AC50.
Give just the number in nM; leave the unit off.

Cpd smiles	Test target	AC50, nM
Cn1cc(-c2ccnc3[nH]ccc23)c(-c2ncc(F)cc2F)n1	human recombinant GST cleaved CSNK1D (Homo sapiens (Human), UniProt P48730)	15
CCn1cc(-c2ccnc3[nH]ccc23)c(-c2ccc(F)cn2)n1	human recombinant GST cleaved CSNK1D (Homo sapiens (Human), UniProt P48730)	7
Cn1cc(-c2ccnc3c(F)cccc23)c(-c2ccc(F)cn2)n1	human recombinant GST cleaved CSNK1D (Homo sapiens (Human), UniProt P48730)	1100

Lab note: next molecule to report on.
Look up AC50 for this molecule: Cn1cc(-c2ccnc3cnccc23)c(-c2ccc(F)cn2)n1 51

* * *

target: UniProt:P48730; assay: Whole Cell nBRET CSNK1D Binding Assay; settings: living CHO cells stably expressing human CSNK1D-nanoluciferase; NanoBret tracer 130 nM; 2 hours 37° C.; read-out: CSNK1D BRET IC50
Metric name: pIC50
// pIC50 here means minus log10 of the molar concentration (mol/L)

Solved entries:
Compound	pIC50
Cn1cc(-c2ccnc3ccccc23)c(-c2ccc(F)cn2)n1 [Example 104]	5.88
Fc1ccc(-c2nn(C3CCOC3)cc2-c2ccnc3[nH]ccc23)nc1 (racemic) [Example 74]	6.66
Cn1cc(-c2ccnc3[nH]ccc23)c(-c2ccsn2)n1 [Example 15]	6.74
CCn1cc(-c2cc(C)nc3[nH]ncc23)c(-c2ccc(F)cn2)n1 [Example 57]	6.66

Which pIC50 value belongs to COc1cc(OC)c2c(-c3cn(C)nc3-c3ccc(F)cn3)ccnc2c1 [Example 151] ? 6.34

Same question for Cn1cc(-c2ccnc3[nH]c(C(F)(F)F)cc23)c(-c2ccc(F)cn2)n1 [Example 85] please. 6.59
